B1: ZNF263 (parent)
chain: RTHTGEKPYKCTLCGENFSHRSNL

variants of: B1; test: protein stability index of a GFP-peptide fusion (GPS, HEK-293T) (PSI 1-6); higher = more stable; details: c terminus: a fixed tail appended;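 also: lentivirally expressed fusions sorted by FACS into six bins by GFP to DsRed ratio, PSI derived from sequencing read proportions per bin multiplied by bin number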

| Construct Sequence | protein stability index |
| --- | --- |
| RTHTGEKPDKCTLCGENFSHRSNL [Y9D] | 2.44 |
| RTHTGEKPYKCTLKGENFSHRSNL [C14K] | 3.48 |
| RTQTGEKPYKCTLCGENFSHRSNL [H3Q] | 2.31 |
| RTHTGEKPYKCTICGENFSHRSNL [L13I] | 2.44 |
| RTHTGEKPYFCTLCGENFSHRSNL [K10F] | 1.76 |
| RTHTGEKPYKCTLCGENFSHRSNS [L24S] | 2.52 |
| RTHTGEKPYKCTLCGENFSHRDNL [S22D] | 2.11 |
| WTHTGEKPYKCTLCGENFSHRSNL [R1W] | 1.99 |
| RTHTGEKPYKCTLCGENFSNRSNL [H20N] | 1.95 |
| RTHTGEKPYKCTLCGANFSHRSNL [E16A] | 1.8 |
| RTHTGEKPYKCTLCGENFSTRSNL [H20T] | 2.11 |

These entries and their values trace back to the supplement of paper PMC10567573.
